Entry source: the nanobody polyreactivity screen of Harvey et al. (2022)

experiment: yeast display, Sf9 membrane polyspecificity reagent, FACS + sequencing; frameworks hold sequencing errors

input.sequence	polyreactivity (PSR sort gate)
QVQLVESGGGLVQAGGSLRLSCAASGRTFYRNAMGWYRQAPGKERELVAAIRGSGSSTYYADSVKGRFTISRDNAKNTVYLQMNSLKPEDTAVYYCAADYITYNGYARYYYWGQGTQVTVSS	high polyreactivity
QVQLVESGGGLVQAGGSLRLSCASSGRTFWFYTMGWYRQAPGKERELVAAISSGGSTNYADSVKGRFTISRDNAKNTVYLQMNSLKPEDTAVYYCNKPPPNRGRYDYWGQGTQVTVSS	low polyreactivity
QVQLVETGGGLVQAGGSLRLSCAASGSIFGPYAMAWYRQAPGKERELVAVISRSGGSTYYADSVKGRFTISRDNAKNTVYLQMNSLKPEDTAVYYCAAYRGPRADYYWGQGTQVTVSS	high polyreactivity
QVQLVESGGGLVQAGGSLRLSCAASGITIDYYAMGWYRQAPGKERELVAAISSVGNTNYADSVKGRFTISRDNAKNTVYLQMNSLKPEDTAVYYCAARAYGQRLYRVWSGYGYWGQGTQVTVSS	high polyreactivity
QVQLVESGGGLVQAGGSLRLSCAASGLTFIKYAMGWYRQAPGKEREFVADISKRGGTTYYADSVKGRFTISRDNAKNTVYLQMNSLKPEDTAFYYCAARQYLNVYYRYDYWGQGTQVTVSS	high polyreactivity
QVQLVESGGGLVQAGGSLRLSCAASGRSFGKNAMGWYRQAPGKERELVAAISTSGGRTYYADSVKGRFTISRDNAKITFFLQMNSLKPEDTAVYYCNAKGWTRPPGYDYWGQGTQVTVSS	high polyreactivity
QVQLVESGGGLVQAGGSLRLSCAASGSTFAYYAMGWYRQAPGKERELVAAITRSTGRTYYADSVKGRFTISRDNAKNTVYLQMNSLKPEDTAVYYCAKTYGYRQPGDYWGQGTLVTVSS	high polyreactivity
QVQLVESGGGLVQAGGSLRLSCAASGSIFKYYSMGWYRQAPGKERELVADISRSGGRTYYADSVKGRFTISRDNAKNTVYLQMNSLKPEDTAVYYCAALDTYQYFRILYGTYEYWGQGTQVTVSS	high polyreactivity
QVLLVESGGGLVQAGGSLRLSCAAYGRTFYGYAMGWYRQAPGKERELVATISSGDSTNYADSVKGRFTISRDNAKNTVYLQMNSLKPEDTAVYYCAAQGGDGVLALYYYWGQGTQVTVSS	low polyreactivity
QVQLEESGGGLVQAGGILRLSCAFYYGIGWYRQATGKERELVAAINLGGGSTYYADSVKGLFTISRDNAKNTVYLQMNSLKPEDTAVYYGAADVGSRTYYVKYDYWGQGTEVTVSS	low polyreactivity
QVQLVESGGGLVQAGGSLRLSCAASGSIFYHNAMGWYRQAPGKERELVAAITWSGSTTYYADSVKGRFTISRDNAKNTVYLQMNSLKPEDTAVYYCNAGNRHGHYDYWGQGTQVTVSS	low polyreactivity

---

test: yeast display, Sf9 membrane polyspecificity reagent, FACS + sequencing; frameworks hold sequencing errors
measurement.name: polyreactivity (PSR sort gate)

input.sequence	assay.value
QVQLVESGGGLVQAGGSLRLSCAASGRTFVYNAMGWYRQAPGKERELVAAISAIDGSTYYADSVKGRFTISRDNAKNTVYLQMNSLKPEDTAVYYCAADTQLEASHKDRYEYDYWGQGTQVTVSS	low polyreactivity
QVQLVESGGGLVQAGGSLRLSCAASGSTFSLYAMGWYRQAPGKERELVARISYTDGSTYYADSVKGRFTISRDNAKNTVYLQMNSLKPEDTAVYYCAAEAWYSYTLEDYWGQGTQVTVSS	low polyreactivity
QVQLVESGGGLVQAGGSLRLSCAASGSTFWSYAMGWYRQAPGKERELVAVITGSDGRTFYADSVKGRFTISRDNAKNTVYFQINSLKPEDTAVYYCAADAVFRATRDDRSTSEDDYWGQGTQVTVSS	low polyreactivity
QVQIVESGGGLVQAGGSLRLSCAASGRIFRRYAMGWYRQAPGKEREFVAAISYGGGATYYADSVKGRFTISRDNAKNTFYLQMNSLKPEDTAVYYCNAEVPKSLLLYYPWGYGYWGQGTQVTVSS	low polyreactivity
QVQLVESGGGLVQAGGSLRLSCAASGLTFKSYAMGWYRQAPVKERELVAGISWSGDSTYYADSVKGRFTISRDNAKNTVYLQMNSLKPEDTAVYYCAAEYSYEYDYWGQGTQVTVSS	high polyreactivity
QVQLVESGVGLVQAGGRLRLSCAASGSIFPTNAMGWYRQAPGKERELVAAISGSGGSTYYADSVKGRFTISRDNAKNTVYLQMNSLKPEDTAVYYCAVKPAPTRTTKRLVYGYNYWGQGTQVTVSS	high polyreactivity
QVQLVESGGGLFQAGGSLRLSCAASGFTFYRNAMGWYRQAPGQERELVAAITRGGSTTYADSVKGRFTISRDNAKNTVYLQMNSLKPEDTAVYYCAKGARADVPGYYKYYYWGQGTQVTVSS	high polyreactivity
QVQLVESGVGLVKAGGILRLSCAASGSIFLRYAMGWYRQAPGKERELVATISKSGGSTYYADSVKGRFTISRDNAKNTVYLQMNSLNPEDTAVYYCAAGYVYFQTYYYWGQGTQVTVSS	high polyreactivity
QVQLVESGGGLVQAGGSLRLSCAASGSIFVAYAMGWYRQAPGKERELVAAITYSAGSTYYADSVKGRFTISRDNAKNTVYLQMNSLKPEDTAVYYCAADTYTYFLASYLYGQYDYWGQGTQVTVSS	low polyreactivity
QVQLVESGGGLVQAGGSLRLSCAASGSTFVSYAMGWYRQAPGKESELVAGISWSGTRTYYADSVKGRFTISRDNAKNTVYLQMNSLKPEDTAVYYCAARDSSYNWYGYWGQGTQVTVSS	high polyreactivity
QVQLVESGGGLVQAGGSLRLSCAASGSTLANYAMGWYRQAPGKERELVAAINSGGSTYYADSVKGRFTISRDNAKNTVYLQMNSLKPEDTAVYYCAAETPNYYGRWEPVWHYYWGQGTQVTVSS	high polyreactivity
QFQLVESGGGLVQAGGSLRLSCAASGIIFVSYAMGGYIQAPGKETEFVAGINWNGGSTYYADSVKGRFTISRDNAKNTVYLQMNSLKPEDTAVYYCNAENYRVRQRSSVKYDYWGHGTQVTVSS	low polyreactivity
QVQLVESGGGLVQAGGSLRLSCAPSGSTFLSYVMGWYRQAPGKERELVAAITGTGGRTYYADSVKGRFTISRDNAKNTVYLQMNCLKTEDTAVYYCTAYRNHGYDYWGQGTQVTVSS	high polyreactivity
QVQLVESGGGLVQAGGSLRLSCAASGRTFHKYAMGWLRQAPGKERELVAAITGSGVRTYYADSVKGRFTISRDNAKNTVYLQMNSLKPEDTAVYYCNADSYNRNGDYWGQGTQVTVSS	high polyreactivity
QVQLVESGGGLVQAGGSLRLTCAASGFTFHNYAMGWYRQAPGKERELVAVIRWRGGSTYYADSVKGRFTISRDNAKNTVYLQMNSLKPEDTAVYYCAKRARGSYYWGYNYWGQGTQVTVSS	high polyreactivity
QVQLVESGGGLVQAGGSLSLSCAASGGTFSYYAMGWYRQAPGKGELVAAISSGGSTNYADSVKGRFTISRDNAINTAYLQMNSLKPEDTAVYYCADRYRFWGPYNYWGQGTQVTVSS	high polyreactivity
QVQLVESGGGLVQAGGSLLLSCAAAGSIFRTYAMGWYRQAPGKERELVAAISRSGSSTYYADSVKGRFTISRDNAKNTVYFQMNSLKPEDTAVYYCAALVRKYGVDYWGQGTQVTVSS	high polyreactivity
QVQLVESGGGLVQAGGSLRLSCASSGTIFKYSAMGWYIQAPGKEREFVAGISWSGGRTYYADSVKGRFTISRDNAKITVYLHMNSLKPEDTAVYYCARVRLTSYGYYSWGQGTQVTVSS	high polyreactivity
QVQLVESGGGLVQAGGSLRLSCAASGRTFSVNDMGWYRQAPGKERELVAAISFSGGSTYYADSVKGRFTISRDNAKNSVYLQMNSLKPEDTEVYYCAAEAYASCFYVITGFGIYDYWGQGTQVTVSS	high polyreactivity
QVQLVESAGGLVQAGGSLRISCAASGSIFYYYAMGWYRQAPGKERELLAAIDSGGSTYYADSVKGRFTISRDNAKNTVYLQMNSLKPEDTAVYYCAADTYWFVYYGYDYWGQGTQVTVSS	low polyreactivity
QVQLVESGGGLVQAGGSLRLSCDASGRIISYNAMGWYRQAPGKERELVAAISWGGGSTYYADSVKGRFTISRDNAKNTVYLQMNSLKPEDTAVYYCAKGWYRIKRNDYWGQGTQVTVSS	low polyreactivity
